Source: patent US6436990B1

METRIC: melting point

compound=COc1ccc2cc(CC(=O)OCC(=O)O)ccc2c1 metric="melting point" observed_value="190 to 192 °C (dec.)"
compound=COc1ccc2cc(CC(=O)OCC(C)=O)ccc2c1 metric="melting point" observed_value="122 to 124 °C"
compound=COCCNC(=O)Cc1ccc2cc(OC)ccc2c1 metric="melting point" observed_value="129 °C"
compound="COc1ccc2cc(CC(N)=O)ccc2c1 [Example 10, 2-(6-methoxy-naphthalen-2-yl)-acetamide]" metric="melting point" observed_value="234 to 236 °C"
compound=CCOC(=O)COC(=O)Cc1ccc2cc(OC)ccc2c1 metric="melting point" observed_value="38 to 40 °C"
